Field: TGI. Provide a value for each of the compounds that follow.
# System: OVCAR-8 ovarian
# test summary: NCI tumour cell line growth inhibition, 48 h

Examples from the recorded data:
Cc1cc(I)cc(CN(C)CCCN2CCCCCCC2)c1O = 43.4 µM
NC(=Nc1c([N+](=O)[O-])cnc2ccccc12)N1CCOCC1 = > 100 µM
O=c1c2sc(=S)n(-c3ccc(F)cc3)c2ncn1Cc1ccc(F)cc1F = > 100 µM

The value of TGI measured for the compound CN(Cc1cnc2nc(N)nc(N)c2n1)c1ccc(C(=O)NC(CCC(=O)NCCC(P(=O)(O)O)P(=O)(O)O)C(=O)O)cc1 (centres undefined) turned out to be > 100 µM
